TARGET: T1, 4H816-AA
T1 chain: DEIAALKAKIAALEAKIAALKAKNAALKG
TEST_METHOD_NOTES: two-hybrid library CCmax;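 further: natural log of median RNA to DNA barcode read ratio; higher means stronger binding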
CONDITIONS: mean of both orientations
ATTRIBUTE_MEASURED: interaction score
Please give the numeric answer without any surrounding text.

Prompt: For the binder shown here, DEIAALEAKNAALKAKNAALKAKIAALKG [4H510-AA] , give the reported interaction score.
Response: -2

Prompt: Entry to check: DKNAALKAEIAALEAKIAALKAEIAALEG [4H3625-AA]
Response: 1.38

Prompt: Entry to check: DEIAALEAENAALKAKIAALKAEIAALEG [4H233-AA]
Response: -0.563
